property-measured: melting point

Below: 7 compounds and their reported melting point.
{"compound": "C(#Cc1cnc2ccccc2c1)CCN1CC=C(c2ccccc2)CC1", "melting point": "94.3 to 95.8 °C"}
{"compound": "CCCCc1ccc(C(=O)Oc2ccc(C=O)cc2)cc1", "melting point": "49.7 °C"}
{"compound": "CC1Oc2ccc(Cn3ccnc3)cc2NC1=O (stereo not drawn)", "melting point": "219 to 222 °C"}
{"compound": "Clc1ccc(-c2nc(Br)cnc2Br)cc1", "melting point": "123 to 125 °C"}
{"compound": "COC(=O)c1ccc2nc3n(c(=O)c2c1)CCC3=Cc1ccccc1", "melting point": "224 to 227 °C"}
{"compound": "COc1cc(OC)nc(C(C(=O)O)C(C)C)n1 (stereo not drawn)", "melting point": "99 to 101 °C"}
{"compound": "c1cc(N2CCCC2)ccc1CC12CC3CC(CC(C3)C1)C2", "melting point": "147 to 148 °C"}

Please look at the following compound next.
Sample CCCC1CCC(C2CCC(OCCCO)CC2)CC1 (stereo not drawn) — what was its melting point? 110 to 111 °C

====

property-measured: melting point

{"compound": "O=C1CCC(N2Cc3c(OCc4ccc(CN5CCC(c6ccccc6)CC5)cc4)cccc3C2=O)C(=O)N1 (stereo not given)", "melting point": "220 to 222 °C"}
{"compound": "COc1ccc(Cn2c3c(c(C#N)c2NC2=CC(=O)CCC2)CCCC3)cc1", "melting point": "143 to 145 °C"}
{"compound": "CS(=O)(=O)c1ccc(C(=O)Nc2ccc(-n3nc(C(F)(F)F)cc3C(F)(F)F)cc2)c(Cl)c1", "melting point": "219 to 220 °C"}
{"compound": "C=CCOc1cccc(-c2n[nH]c(-c3ccccc3C)n2)c1", "melting point": "72 to 75 °C"}

melting point lookup needed for O=C(O)C(=O)c1ccc(OCCOc2cccc(F)c2)cc1 , thanks. 108 to 109 °C

====

property-measured: melting point (°C)

(A) Cc1ccc2c(c1)[C@H](Nc1nc(NC=O)nc(C(F)F)n1)[C@@H](C)C2
(B) Cc1cc(-c2cnn3c(C(F)(F)F)cc(-c4ccc(Cl)cc4)nc23)ccn1
Lab note: record which item had the higher melting point, A or B . Output the label that corresponds to your choice. B

====

melting point listing for selected compounds.

{"compound": "C#CCOc1ccc(CCN(OS(C)(=O)=O)C(=O)Cc2ccc(Cl)cc2)cc1OC", "melting point": "91 to 93 °C"}
{"compound": "CCOC(=O)c1cnn2c(-c3ccc(C)c(C)c3)ccnc12", "melting point": "187 to 188 °C"}
{"compound": "Cc1ccc(C(=S)c2c(C)cc(Cc3ccc(N)cc3F)n2C)cc1", "melting point": "199 to 200 °C"}

Quick one: melting point of CCOC(=O)[C@H](Cc1cccc(-c2ccc3ccccc3c2)c1)NC(=O)C(F)(F)F ? 89 to 91 °C

I'd like to know its melting point. The compound in question is CCCC(=O)Nc1ccccc1C(F)(F)F 76 °C

Record request: melting point value, item CC1CC2C3CCC4=CC(=O)C=CC4(C)C3=CCC2(C)C1C(=O)CN1CCN(c2cc(N3CCCC3)nc(NC34CC5CC(CC(C5)C3)C4)n2)CC1 (stereo not drawn) 155 to 172 °C

Which measured melting point value corresponds to CC(CCOS(N)(=O)=O)Oc1ccccc1 (stereo not drawn) ? 76 to 77 °C

Returns the measured melting point for the input compound. Input: Nc1cn(C2OC(CO)C(O)C2O)nn1 (stereo not drawn) 102 to 104 °C
